- EXPERIMENTAL_CONTEXT: in isopropanol, 298.15 K
ASSAY_METRIC: solubility (mole fraction)
Reply with just the number.

-- ask Could you tell me which solubility (mole fraction) is on file for COc1cccc(CCc2ccccc2OCC(CN(C)C)OC(=O)CCC(=O)O)c1.Cl (stereo unspecified) ?
-- reply 0.00011

###

- EXPERIMENTAL_CONTEXT: in acetone, 303.15 K
ASSAY_METRIC: solubility (mole fraction)
Reply with just the number.

-- ask Could you tell me which solubility (mole fraction) is on file for COc1cccc(CCc2ccccc2OCC(CN(C)C)OC(=O)CCC(=O)O)c1.Cl (stereo unspecified) ?
-- reply 0.000193

###

- EXPERIMENTAL_CONTEXT: in n-propanol, 288.15 K
ASSAY_METRIC: solubility (mole fraction)
Reply with just the number.

-- ask Could you tell me which solubility (mole fraction) is on file for COc1cccc(CCc2ccccc2OCC(CN(C)C)OC(=O)CCC(=O)O)c1.Cl (stereo unspecified) ?
-- reply 0.000171

###

- EXPERIMENTAL_CONTEXT: in ethanol, 308.15 K
ASSAY_METRIC: solubility (mole fraction)
Reply with just the number.

-- ask Could you tell me which solubility (mole fraction) is on file for COc1cccc(CCc2ccccc2OCC(CN(C)C)OC(=O)CCC(=O)O)c1.Cl (stereo unspecified) ?
-- reply 0.00476

###

- EXPERIMENTAL_CONTEXT: in n-propanol, 308.15 K
ASSAY_METRIC: solubility (mole fraction)
Reply with just the number.

-- ask Could you tell me which solubility (mole fraction) is on file for COc1cccc(CCc2ccccc2OCC(CN(C)C)OC(=O)CCC(=O)O)c1.Cl (stereo unspecified) ?
-- reply 0.000698

###

- EXPERIMENTAL_CONTEXT: in methanol, 293.15 K
ASSAY_METRIC: solubility (mole fraction)

-- ask Could you tell me which solubility (mole fraction) is on file for COc1cccc(CCc2ccccc2OCC(CN(C)C)OC(=O)CCC(=O)O)c1.Cl (stereo unspecified) ?
-- reply 0.00493

###

- EXPERIMENTAL_CONTEXT: in n-propanol, 298.15 K
ASSAY_METRIC: solubility (mole fraction)

-- ask Could you tell me which solubility (mole fraction) is on file for COc1cccc(CCc2ccccc2OCC(CN(C)C)OC(=O)CCC(=O)O)c1.Cl (stereo unspecified) ?
-- reply 0.000354

###

- EXPERIMENTAL_CONTEXT: in THF, 303.15 K
ASSAY_METRIC: solubility (mole fraction)
Reply with just the number.

-- ask Could you tell me which solubility (mole fraction) is on file for COc1cccc(CCc2ccccc2OCC(CN(C)C)OC(=O)CCC(=O)O)c1.Cl (stereo unspecified) ?
-- reply 7.01e-05

###

- EXPERIMENTAL_CONTEXT: in isopropanol, 308.15 K
ASSAY_METRIC: solubility (mole fraction)
Reply with just the number.

-- ask Could you tell me which solubility (mole fraction) is on file for COc1cccc(CCc2ccccc2OCC(CN(C)C)OC(=O)CCC(=O)O)c1.Cl (stereo unspecified) ?
-- reply 0.000186

###

- EXPERIMENTAL_CONTEXT: in acetone, 293.15 K
ASSAY_METRIC: solubility (mole fraction)

-- ask Could you tell me which solubility (mole fraction) is on file for COc1cccc(CCc2ccccc2OCC(CN(C)C)OC(=O)CCC(=O)O)c1.Cl (stereo unspecified) ?
-- reply 7.84e-05
